LC retention time values, listed per item
Test: RP, Waters XBridge C18, 50 × 2.1 mm, 3.5 µm, 30 °C, 0.2 mL/min, estimated dead time 0.55 min; A: water + 0.1% formic acid, pH 3; B: methanol + 0.1% formic acid, pH 3; gradient (min/%B) 0/10 4/50 17/95 25/95 25.1/10 30/10
Conditions: stereoisomer not certain

| Compound | LC retention time / min |
| --- | --- |
| COc1ccc(CCC(=O)c2c(O)cc(OC3OC(CO)C(O)C(O)C3OC3OC(C)C(O)C(O)C3O)cc2O)cc1O (centres undefined) [Neohesperidin dihydrochalcone] | 7.2 |
| Nc1ccc(S(=O)(=O)O)cc1 | 0.9 |
| O=P(O)(O)OCCC(F)(F)C(F)(F)C(F)(F)C(F)(F)C(F)(F)C(F)(F)F [Perfluorooctyl phosphate] | 12.1 |
| c1ccc2n[nH]nc2c1 | 4.4 |
| CCNc1nc(NC(C)C)[nH]c(=O)n1 [Atrazine-2-hydroxy] | 4.4 |
| C1=Cc2ccccc2Nc2ccccc21 | 11 |
| NC(CC(=O)N1CCn2c(nnc2C(F)(F)F)C1)Cc1cc(F)c(F)cc1F (centres undefined) | 5.2 |
| O=C(O)C(F)(F)C(F)(F)C(F)(F)F | 5.1 |
| CCOC1Oc2ccc(OS(C)(=O)=O)cc2C1(C)C (centres undefined) [Ethofumesate] | 10 |

----------
Assay: RP, Waters XBridge C18, 50 × 2.1 mm, 3.5 µm, 30 °C, 0.2 mL/min, estimated dead time 0.55 min; A: water + 0.1% formic acid, pH 3; B: methanol + 0.1% formic acid, pH 3; gradient (min/%B) 0/10 4/50 17/95 25/95 25.1/10 30/10
Conditions: stereoisomer not certain

| Compound | Unit Of Measure | LC retention time |
| --- | --- | --- |
| Cc1ncc([N+](=O)[O-])n1CCO [Metronidazole] | min | 2.1 |
| Nc1ccn(C2OC(CO)C(O)C2(F)F)c(=O)n1 (stereo not given) [Gemcitabine] | min | 1 |
| Cc1cc(C2CC2)nc(Nc2ccccc2)n1 [Cyprodinil] | min | 9.4 |
| CC(C)N(C(=O)CS(=O)(=O)O)c1ccccc1 [Propachlor ESA] | min | 5.9 |
| CCOCN(C(=O)CS(=O)(=O)O)c1c(C)cccc1CC [Acetochlor ESA] | min | 7.7 |
| CCN1CCCC1CNC(=O)c1cc(S(=O)(=O)CC)c(N)cc1OC (stereo not given) [Amisulpride] | min | 3.8 |
| CN1C(=O)CN=C(c2ccccc2)c2cc(Cl)ccc21 [Diazepam] | min | 10.1 |
| O=C(O)C=C(F)C(F)(F)C(F)(F)C(F)(F)C(F)(F)C(F)(F)F [6:2 fluorotelomer unsaturated carboxylic acid] | min | 13.6 |
| CNC(=C[N+](=O)[O-])NCCS(=O)Cc1ccc(CN(C)C)o1 (stereo not given) [Ranitidine-S-oxide] | min | 0.8 |
| Cc1nc(N(C)C)nc(OC(=O)N(C)C)c1C [Pirimicarb] | min | 5 |

----------
Experiment: RP, Waters XBridge C18, 50 × 2.1 mm, 3.5 µm, 30 °C, 0.2 mL/min, estimated dead time 0.55 min; A: water + 0.1% formic acid, pH 3; B: methanol + 0.1% formic acid, pH 3; gradient (min/%B) 0/10 4/50 17/95 25/95 25.1/10 30/10
Settings: stereoisomer not certain
Measured Quantity: LC retention time (min)

| Molecule | Test Value |
| --- | --- |
| CC(=O)NCCCS(=O)(=O)O [Acamprosate] | 1 |
| CCCOC(=O)NCCCN(C)C | 2.4 |
| CCCCNC(=O)OCC#CI | 8.4 |
| O=C(NC(=O)c1c(F)cccc1F)Nc1cc(Cl)c(F)c(Cl)c1F | 16.1 |
| CC(NC(C)(C)C)C(=O)c1cccc(Cl)c1 (centres undefined) | 5.8 |
| CC1CC2C(C(O)CC3(C)C2CCC3(O)C(=O)CO)C2(C)C=CC(=O)C=C12 (centres undefined) | 9.2 |
| CCN(CC)CC(=O)Nc1c(C)cccc1C | 4.2 |
| N#CCNC(=O)c1cnccc1C(F)(F)F | 3.9 |
| CNCCCC(C#N)(c1ccc(OC)c(OC)c1)C(C)C (centres undefined) | 6.3 |
| NC(=O)N1c2ccccc2C2OC2c2ccccc21 (centres undefined) [Carbamazepine-10,11-epoxide] | 6.3 |
| CC(C)(C)Nc1nc(N)[nH]c(=O)n1 [Terbutylazine-desethyl-2-hydroxy] | 2.9 |
| COc1cc(OC)nc(NC(=O)NS(=O)(=O)c2cc(NC=O)ccc2C(=O)N(C)C)n1 | 7.8 |
| Cc1nnc(-c2ccccc2)c(=O)n1N | 4.9 |
| NS(=O)(=O)c1cc(C(=O)O)c(NCc2ccco2)cc1Cl [Furosemide] | 6.8 |
| NC(=O)N1c2ccccc2C(O)C(O)c2ccccc21 (stereo not drawn) [10,11-trans-Dihydroxy-10,11-dihydrocarbamazepine] | 6.1 |
| CCOP(=S)(OCC)Oc1cc(C)nc(C(C)C)n1 | 13 |
| CC(Cc1ccc(C(C)(C)C)cc1)CN1CC(C)OC(C)C1 (centres undefined) | 9.4 |
| CC(C)(c1ccc(O)cc1)c1ccc(O)cc1 | 14 |
| CC(=O)Nc1ccc(S(=O)(=O)Nc2ncccn2)cc1 | 3.6 |
| COP(=S)(OC)Oc1nc(Cl)c(Cl)cc1Cl | 14 |
| CCC(C)(C)C(=O)OC1CC(C)C=C2C=CC(C)C(CCC3CC(O)CC(=O)O3)C21 (centres undefined) | 16 |
| CNC1(c2ccccc2Cl)CCCCC1=O (centres undefined) | 4.6 |
| N#Cc1c(Cl)cccc1Cl | 8.5 |
| Cc1cc(=O)[nH]c(C(C)C)n1 | 3.4 |
| CC1CC2C3CCC4=CC(=O)C=CC4(C)C3(F)C(O)CC2(C)C1(O)C(=O)CO (centres undefined) | 9.5 |
| CCNc1nc(N)nc(Cl)n1 | 4.3 |
| CC(C)NCC(O)COc1cccc2ccccc12 (centres undefined) | 6.6 |
| COCCOCCOC | 3.2 |
| CNC(=O)Oc1cc(C)c(SC)c(C)c1 | 10.4 |
| Cc1nnc(-c2ccccc2)c(=O)[nH]1 | 5.1 |
| CNCC(c1ccc(OC)cc1)C1(O)CCCCC1 (centres undefined) | 6.3 |
| CCCCCCCCn1sc(Cl)c(Cl)c1=O | 15.3 |
| CCCN(CCC)c1c([N+](=O)[O-])cc(C(F)(F)F)cc1[N+](=O)[O-] | 16.5 |
| CCCCCCCCn1sccc1=O | 11.6 |
| CCCCC(=O)N(Cc1ccc(-c2ccccc2-c2nn[nH]n2)cc1)C(C(=O)O)C(C)C (centres undefined) | 11.2 |
| COCCN(C(=O)CCl)c1c(C)cccc1C | 9.1 |
| OCC1OC(OC2(CCl)OC(CCl)C(O)C2O)C(O)C(O)C1Cl (centres undefined) | 4.4 |
| CSc1nc(NC(C)C)nc(NC(C)C)n1 | 8.5 |
| O=C(O)C(c1ccccc1)C1CCCCN1 (centres undefined) | 4.7 |

----------
LC retention time values, listed per item
Assay: RP, Waters XBridge C18, 50 × 2.1 mm, 3.5 µm, 30 °C, 0.2 mL/min, estimated dead time 0.55 min; A: water + 0.1% formic acid, pH 3; B: methanol + 0.1% formic acid, pH 3; gradient (min/%B) 0/10 4/50 17/95 25/95 25.1/10 30/10
Settings: stereoisomer not certain
Measured Quantity: LC retention time (min)

| Molecule | Test Value |
| --- | --- |
| CCNc1nc(NC(C)(C)C)nc(SC)n1 [Terbutryn] | 8.5 |
| CC(C)(Oc1ccc(CCNC(=O)c2ccc(Cl)cc2)cc1)C(=O)O [Bezafibrate] | 10.6 |
| COCCc1ccc(OCC(O)CNC(C)C)cc1 (stereo not drawn) [Metoprolol] | 5.1 |
| COc1ccc(CCN(C)CCCC(C#N)(c2ccc(OC)c(OC)c2)C(C)C)cc1OC (stereo not drawn) [Verapamil] | 7.3 |
| CCNC(=O)C(C)OC(=O)Nc1ccccc1 (stereo not drawn) [Carbetamide] | 6.6 |
| Cc1cc(C)nc(NS(=O)(=O)c2ccc(N)cc2)n1 [Sulfamethazine] | 3.9 |
| Nc1nc2ccccc2[nH]1 [2-Aminobenzimidazole] | 2.7 |
| CCNc1nc(NCC)nc(OC)n1 [Simeton] | 4.9 |
| CC(CN(C)C)CN1c2ccccc2CCc2ccccc21 (stereo not drawn) [Trimipramine] | 8.7 |
| CC(C)NCC(O)c1ccc(NS(C)(=O)=O)cc1 (stereo not drawn) [Sotalol] | 1.6 |
| CC(C)NCC(O)COc1ccc(CC(N)=O)cc1 (stereo not drawn) [Atenolol] | 2 |
| CCOC(=O)C1=CC(OC(CC)CC)C(NC(C)=O)C(N)C1 (stereo not drawn) [Oseltamivir] | 7 |
| Oc1ccc(C(F)(F)F)cc1 [4-Trifluoromethylphenol] | 8.9 |
